Consider the following binders; for each one, report its kon.
Biological target: T1, SARS-CoV2 spike RBD variant (SRD-C52H2, Acro Biosystems, N440K) (SARS-CoV-2, UniProt P0DTC2 319-537)
T1 construct: domain: RBD
Test: BLI (Octet), biotinylated RBD on SA sensor, VHH as analyte, 1:1 fit
Answers are plain numbers, in M⁻¹ s⁻¹.

binder: Bacillus subtilis-derived VHH-COVE8 (VHH) VHH: EVQLVESGGGLVQPGGSLTLSCAASGQTFSSYNMAWFRQSPGKEREFVATISWGGGSTGYADSVKGRFTISRDHAKNTVYLQMKDLKPEDTGAYYCYLVGLFGIQASDYWGQGTQVTVSS
kon (M⁻¹ s⁻¹): 74500
//
binder: Bacillus subtilis-derived VHH-COVE9 (VHH) VHH: EVQLVESGGGLVQPGGSLRLSCAASGTIFSTNAMSWYRQAPGKQRELVAAITSGGNTNYADSVKGRFTISRDNAKNTVYLQMNSLKPEDTAVYYCNAPGVVTGSYDVRNYWGQGTQVTVSS
kon (M⁻¹ s⁻¹): 206000
//
binder: Bacillus subtilis-derived VHH-COVE5 (VHH) VHH: EVQLVESGGGLVQAGGSLRLSCTASDQIFDNYNMAWFRQSPGKEREFVAALSWGDSNTGYADSVKGRFTISRDNAKNTVYLQMNSLKPEDTAVYYCYAVTWLRGDYWGQGTQVTVSS
kon (M⁻¹ s⁻¹): 42100
//
binder: Bacillus subtilis-derived VHH-COVE3 (VHH) VHH: AEVQLVESGGGFVQAGGSLRLSCRVSAPTFMTYTMAWFRQAPGNEREFVAALSKNFVTTSYADSVKGRFTISRDNAKNTVYLQMNSLKPEDTAVYYCNVAWSDYEYLEVWGQGTLVTVSSGGGSHHHHHH
kon (M⁻¹ s⁻¹): 29200
//
binder: Bacillus subtilis-derived VHH-COVE2 (VHH) VHH: AEVQLVESGGGLVQAGDSLRLSCAATRRTSSTYAMGWFRQAPGKGLEWVAAISWDGGRTYYAESVKGRFTISRDNAKNTVYLQMNSLKPEDTAVYYCYSFGGSDFLMDYWGQGTQVTVSSGGGSHHHHHH
kon (M⁻¹ s⁻¹): 166000

For the binder Bacillus subtilis-derived VHH-COVE7 (VHH) VHH: EVQLVESGGGLVQAGDSLRLSCTASGRTFSSCAMGWFRQAPGKEREFVAAISRGGGSTSYADSVKGRFTISKDRARNTAYLEMNSLKPEDTAIYYCYAVFPSGGDYWGQGTQVTVSS , what kon is on record? 46600

The reported numbers originate from patent US20230365659A1.
